biological target: Collagenase from neutrophiles (MMP-8) (Homo sapiens); construct: G. Murphy (Strangeways Labs., Cambridge, UK); host or cells: human cell cultures; assay: Inhibition of human enzyme Collagenase from neutrophiles (MMP-8), fluorescent substrate; assay type: biochemical; conditions: expressed qualitatively; enzyme activated with p-aminomercuryacetate
Sequence (P22894 101-467): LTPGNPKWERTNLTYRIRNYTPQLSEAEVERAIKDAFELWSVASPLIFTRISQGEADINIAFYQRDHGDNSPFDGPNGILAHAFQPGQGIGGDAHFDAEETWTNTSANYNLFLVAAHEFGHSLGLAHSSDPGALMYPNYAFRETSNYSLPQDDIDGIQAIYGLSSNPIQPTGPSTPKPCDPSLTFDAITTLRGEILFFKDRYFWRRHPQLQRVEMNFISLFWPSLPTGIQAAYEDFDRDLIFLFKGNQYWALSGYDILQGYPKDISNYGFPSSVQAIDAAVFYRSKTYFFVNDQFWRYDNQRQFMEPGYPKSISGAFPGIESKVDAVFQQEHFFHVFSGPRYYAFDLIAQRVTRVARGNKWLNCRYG

molecule: CCOP(=O)(OCC)C(Cc1c[nH]c2ccccc12)NC(=O)[C@H](CC(C)C)NC(=O)c1ccc[nH]1 (stereo partly drawn) [Compound n.3b]
INHIBITION: Good

molecule: CCOP(=O)(OCC)C(Cc1c[nH]c2ccccc12)NC(=O)[C@H](CC(C)C)NC(=O)c1ccco1 (stereo partly drawn) [Compound n.3a]
INHIBITION: Fair

molecule: CC(C)C[C@H](NC(=O)c1ccco1)C(=O)NC(Cc1c[nH]c2ccccc12)P(=O)(OCc1ccccc1)OCc1ccccc1 (stereo partly drawn) [Compound n.9]
INHIBITION: Fair

molecule: CCOP(=O)(OCC)C(Cc1c[nH]c2ccccc12)NC(=O)[C@H](CC(C)C)NC(=O)[C@@H]1CCC(=O)O1 (stereo partly drawn) [Compound n.3e]
INHIBITION: Fair

molecule: CCOP(=O)(OCC)C(Cc1c[nH]c2ccccc12)NC(=O)[C@H](CC(C)C)NC(=O)[C@@H]1CSC(=O)N1 (stereo partly drawn) [Compound n.3f]
INHIBITION: Good

molecule: CCOP(=O)(OCC)C(Cc1c[nH]c2ccccc12)NC(=O)[C@H](CC(C)C)NC(=O)[C@@H]1CCCN1C(=O)OCc1ccccc1 (stereo partly drawn) [Compound n.3c]
INHIBITION: Good
